- targetUnderTest: human mGluR2 receptor (Homo sapiens)
- Construct: expressed in transfected cells; host or cells: CHO cells (membranes)
- Sequence (Q14416 19-872): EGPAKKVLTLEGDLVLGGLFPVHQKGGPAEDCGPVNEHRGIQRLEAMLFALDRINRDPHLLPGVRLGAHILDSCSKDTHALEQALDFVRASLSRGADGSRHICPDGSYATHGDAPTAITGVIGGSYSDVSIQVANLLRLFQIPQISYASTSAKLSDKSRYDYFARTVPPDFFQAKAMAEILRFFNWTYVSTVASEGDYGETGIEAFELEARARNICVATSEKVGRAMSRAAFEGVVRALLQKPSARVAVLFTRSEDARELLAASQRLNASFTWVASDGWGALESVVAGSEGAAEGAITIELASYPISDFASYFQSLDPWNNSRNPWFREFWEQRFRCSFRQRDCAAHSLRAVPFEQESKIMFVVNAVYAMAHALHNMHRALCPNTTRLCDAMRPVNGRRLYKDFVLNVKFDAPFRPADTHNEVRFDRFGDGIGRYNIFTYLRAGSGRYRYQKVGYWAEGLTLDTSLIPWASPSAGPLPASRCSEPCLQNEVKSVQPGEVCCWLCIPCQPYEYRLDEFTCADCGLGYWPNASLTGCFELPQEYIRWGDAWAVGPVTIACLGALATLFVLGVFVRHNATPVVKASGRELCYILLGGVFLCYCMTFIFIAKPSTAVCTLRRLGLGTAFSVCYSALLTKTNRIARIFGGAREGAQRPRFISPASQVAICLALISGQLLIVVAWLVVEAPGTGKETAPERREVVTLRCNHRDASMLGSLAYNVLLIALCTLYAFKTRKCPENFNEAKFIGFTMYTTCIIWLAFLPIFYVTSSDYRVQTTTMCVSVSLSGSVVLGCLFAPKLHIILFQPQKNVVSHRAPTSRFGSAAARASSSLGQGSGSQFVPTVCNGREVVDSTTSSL
- assayExplanation: [35S]GTPγS binding assay, mGluR2 positive allosteric modulation (PAM)
- Assay type: biochemical
- experimentalSetup: membranes from CHO cells transfected with human mGluR2; in presence of glutamate at EC20; maximal % effect relative to the control glutamate response; read-out: GTPγS - hmGluR2 PAM Emax
- Method: The [^35S]GTPγS binding assay is a functional membrane-based assay used to study G-protein coupled receptor (GPCR) function whereby incorporation of a non-hydrolysable form of GTP, [^35S]GTPγS (guanosine 5′-triphosphate, labelled with gamma-emitting ^35S), is measured. […] CHO-cells were cultured to pre-confluence and stimulated with 5 mM butyrate for 24 h. […] Protein concentration was determined by the Bradford method (Bio-Rad, USA) with bovine serum albumin as standard. […]
measure: Emax (%)
Give bare numbers, in %.

A selection of reference data follows.
{"compound": "Cc1nnc2c(C(F)(F)F)c(CN3CCCC(C)(c4ccccc4)C3)ccn12 (single isomer, unassigned) [Compound 11]", "targetUnderTest": "human mGluR2 receptor (Homo sapiens)", "Emax [%]": 268}
{"compound": "FC(F)(F)c1c(CN2CCNC(c3ccccc3)C2)ccn2c(CC3CC3)nnc12 (single isomer, unassigned)", "targetUnderTest": "human mGluR2 receptor (Homo sapiens)", "Emax [%]": 270}
{"compound": "CN1CCN(Cc2ccn3c(CC4CC4)nnc3c2C(F)(F)F)CC1c1ccccc1 (single isomer, unassigned) [Compound 7b]", "targetUnderTest": "human mGluR2 receptor (Homo sapiens)", "Emax [%]": 198}

For each listed entry, give its Emax.
1. CC1(c2ccccc2)CN(Cc2ccn3c(CC4CC4)nnc3c2C(F)(F)F)CCN1 (single isomer, unassigned) [Compound 3a]
2. CC1(c2ccccc2)CN(Cc2ccn3c(CC4CC4)nnc3c2C(F)(F)F)CCN1 (single isomer, unassigned) [Compound 3b]

[271, 292]

Hi, could you look up Emax for each item in my list?
1. Fc1ccc(C2CN(Cc3ccn4c(CC5CC5)nnc4c3C(F)(F)F)CCO2)c(F)c1 (single isomer, unassigned)
2. FC(F)(F)c1c(CN2CCO[C@@H](c3ccccc3)C2)ccn2c(CC3CC3)nnc12

[259, 294]

###

- targetUnderTest: human mGluR2 receptor (Homo sapiens)
- Construct: expressed in transfected cells; host or cells: CHO cells (membranes)
- assayExplanation: [35S]GTPγS binding assay, mGluR2 positive allosteric modulation (PAM)
- Type: biochemical
- experimentalSetup: membranes from CHO cells transfected with human mGluR2; in presence of glutamate at EC20; -log EC50 with EC50 in M; read-out: GTPγS - hmGluR2 PAM pEC50 (converted)
Heads up, the class ranges for EC50 are bucket 1 (below 50 nM), bucket 2 (50 nM to below 600 nM), bucket 3 (600 nM or more)

Below are worked cases with known answers.
{"molecule": "Cc1nnc2c(C(F)(F)F)c(CN3CCCC(C)(c4ccccc4)C3)ccn12 (single isomer, unassigned)", "assignedCategory": "bucket 2"}
{"molecule": "Fc1ccc(C2CN(Cc3ccn4c(CC5CC5)nnc4c3C(F)(F)F)CCO2)c(F)c1 (single isomer, unassigned) [Compound 17]", "assignedCategory": "bucket 3"}
{"molecule": "Fc1ccccc1C1CN(Cc2ccn3c(CC4CC4)nnc3c2C(F)(F)F)CCN1 (single isomer, unassigned) [Compound 6b]", "assignedCategory": "bucket 3"}
{"molecule": "CC1(c2ccccc2)CCN(Cc2ccn3c(CC4CC4)nnc3c2C(F)(F)F)C1 (single isomer, unassigned) [Compound 14]", "assignedCategory": "bucket 1"}
{"molecule": "CN1CCN(Cc2ccn3c(CC4CC4)nnc3c2C(F)(F)F)CC1c1ccccc1 (single isomer, unassigned)", "assignedCategory": "bucket 2"}

Hi, small favor: classify CC1(c2ccccc2)CN(Cc2ccn3c(CC4CC4)nnc3c2C(F)(F)F)CCN1 (single isomer, unassigned) by its EC50 when you get a moment.
bucket 1

Which bin, given its EC50, does Fc1ccc(C2CN(Cc3ccn4c(CC5CC5)nnc4c3C(F)(F)F)CCN2)c(F)c1 (single isomer, unassigned) [Compound 19b] occupy?
bucket 2

Into which category would you place FC(F)(F)c1c(CN2CCNC(c3ccccc3)C2)ccn2c(CC3CC3)nnc12 (single isomer, unassigned) [Compound 5a] ?
bucket 3

Exercise: read the entry FC(F)(F)c1c(CN2CCNC(c3ccccc3)C2)ccn2c(CC3CC3)nnc12 (single isomer, unassigned) [Compound 5b] and state which class it falls under.
bucket 3

Consider Fc1ccc(N2CCN(Cc3ccn4c(CC5CC5)nnc4c3C(F)(F)F)C3CC32)c(F)c1 (racemic) . To which EC50 class does it belong?
bucket 1
